Test system: Candida parapsilosis
Assay: Antifungal activity against Candida parapsilosis isolate CP2 measured after 48 hrs by CLSI M27-A3 protocol based method
Assay type: functional
Details: Lodderomyces parapsilosis, isolate CP2, 48 h
assay-endpoint: MIC (µM)
All answers are understood in µM, so give the number only.

compound | result-units | value-observed
OC(CNC1CCCCCCC1)(Cn1cncn1)c1ccc(F)cc1F (centres undefined) | µM | 2.7

In plain terms, OCCCCCCNCC(O)(Cn1cncn1)c1ccc(F)cc1F (centres undefined) has a documented MIC of 88.3

In plain terms, CCCCCOCCCCCCNCC(O)(Cn1cncn1)c1ccc(F)cc1F (centres undefined) has a documented MIC of 0.28

In plain terms, CCCCCCCCCCCCCCCCNCC(O)(Cn1cncn1)c1ccc(F)cc1F (centres undefined) has a documented MIC of 1
